Listing of entries alongside the reported Kd.
- Tgt: T1, human Sortilin Fc fusion protein (human, UniProt Q99523 78-755)
- T1 construct: whole entry named; also called hSort-Fc
- Protocol summary: ForteBio, avid;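 further: whole IgG captured on AHQ sensors, then contacted with Sortilin Fc fusion antigen at 100 nM, followed by an off-rate phase in buffer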
Kindly answer with a numeric value in nM, unit omitted.

Solved cases below.
Binder	Kd [nM]
S-21 (antibody, V domains shown, IgG) VH: QVQLVQSGAEVKKPGSSVKVSCKASGGTFSSYAISWVRQAPGQGLEWMGSIIPIFGTANYAQKFQGRVTITADESTSTAYMELSSLRSEDTAVYYCARERRYDGYYYYYGMDVWGQGTTVTVSS VL: DIQMTQSPSSLSASVGDRVTITCRASQSISSYLNWYQQKPGKAPKLLIYAASSLQSGVPSRFSGSGSGTDFTLTISSLQPEDFATYYCQQKASLPFTFGGGTKVEIK	1.87
S-74 (antibody, V domains shown, IgG) VH: QVQLQESGPGLVKPSQTLSLTCTVSGGSISSGTYYWSWIRQHPGKGLEWIGYIYYSGSTYYNPSLKSRVTISVDTSKNQFSLKLSSVTAADTAVYYCARGVGRYRVADYWGQGTLVTVSS VL: EIVMTQSPATLSLSPGERATLSCRASQSVSSYLAWYQQKPGQAPRLLIYDSSNRATGIPARFSGSGSGTDFTLTISSLEPEDFAVYYCQQETNMPPITFGGGTKVEIK	3.05
S-55 (antibody, V domains shown, IgG) VH: QVQLQESGPGLVKPSETLSLTCAVSGYSISSGYYWGWIRQPPGKGLEWIGSIYHSGSTYYNPSLKSRVTISVDTSKNQFSLKLSSVTAADTAVYYCARGRPELGWDKYFQHWGQGTLVTVSS VL: DIQMTQSPSSVSASVGDRVTITCRASQGISRWLAWYQQKPGKAPKLLIYAASSLQSGVPSRFSGSGSGTDFTLTISSLQPEDFATYYCQQANALPTFGGGTKVEIK	2.28

Note: attention shifts to another entry.
S-61 (antibody, V domains shown, IgG) VH: QVQLQESGPGLVKPSETLSLTCAVSGYSISSGYYWGWIRQPPGKGLEWIGSIYHSGSTYYNPSLKSRVTISVDTSKNQFSLKLSSVTAADTAVYYCARGSPRFYYGSGSYLDLFDIWGQGTMVTVSS VL: EIVMTQSPATLSVSPGERATLSCRASQSVSSNLAWYQQKPGQAPRLLIYGASTRATGIPARFSGSGSGTEFTLTISSLQSEDFAVYYCQEYLNYPITFGGGTKVEIK has a reported Kd of 4.26

FYI, the data here is from patent US20220185898A1.
